- Measured On: UniProtKB P0DTD1
Observation Type: IC50 (µM)
Numbers only, in µM.

Form field: reported IC50 of COc1cc(O)ccc1/C=C/C(=O)c1ccc(O)cc1 [Echinatin]
22.5
